- assay explanation: physchem
- conditions used: storage open to air
attribute measured: degraded (%)
Give a bare numeral; the unit % is implied.

Would you mind telling me what degraded value was observed for CCCCC[C@H](O)/C=C/[C@@H]1[C@@H](C/C=C\CCCC(=O)O)[C@@H](O)C[C@H]1O (relative stereo) ? 3
